- Test System: hFSP1 (Homo sapiens)
- Sequence (Q9BRQ8 whole entry): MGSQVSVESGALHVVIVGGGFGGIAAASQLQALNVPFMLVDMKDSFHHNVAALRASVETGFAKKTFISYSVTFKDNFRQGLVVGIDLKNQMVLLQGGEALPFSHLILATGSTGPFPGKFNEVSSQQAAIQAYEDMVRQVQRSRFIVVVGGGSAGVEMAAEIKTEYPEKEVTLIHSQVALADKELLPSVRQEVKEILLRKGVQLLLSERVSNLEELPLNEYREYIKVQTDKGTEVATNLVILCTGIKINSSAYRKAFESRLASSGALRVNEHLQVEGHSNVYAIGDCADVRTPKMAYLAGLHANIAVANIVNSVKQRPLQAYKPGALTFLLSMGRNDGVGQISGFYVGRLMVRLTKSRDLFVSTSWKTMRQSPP
- Assay Explanation: Dose-response of screening hits, cell survival by Aquabluer in hFSP1 GPX4 KO cells
- Condition Set: FSP1 overexpressing cells lacking GPX4
EC50 listing for selected compounds.
Quantity Kind: EC50

INSERT INTO results (compound, recorded_result) VALUES
  ('Cc1nc2ccccc2c(=O)n1-c1ccc(NC(=O)Cc2ccc3c(c2)CCC3)cc1 [Compound 64]', '< 100 nM'),
  ('CCC(C(=O)Nc1ccc(-n2c(C)nc3ccccc3c2=O)cc1)c1ccccc1 (centres unmarked) [Compound 19]', '< 1000 nM'),
  ('COc1ccc(CC(=O)Nc2ccc(-n3c(C)nc4ccccc4c3=O)cc2)cc1 [Compound 4]', '> 1000 nM'),
  ('COc1cc(CC(=O)Nc2ccc(-n3c(C)nc4sccc4c3=O)cc2)cc(OC)c1OC [Compound 69]', '< 1000 nM'),
  ('CCOc1cc(C(=O)Nc2ccc(-n3c(C)nc4ccccc4c3=O)cc2)cc(OCC)c1OCC [Compound 10]', '< 1000 nM'),
  ('Cc1nc2cc(F)c(F)cc2c(=O)n1-c1ccc(NC(=O)Cc2ccccc2)cc1 [Compound 82]', '< 1000 nM'),
  ('Cc1cc(-n2c(C)nc3ccccc3c2=O)ccc1NC(=O)Cc1ccccc1Cl [Compound 30]', '> 1000 nM'),
  ('Cc1nc2ccccc2c(=O)n1-c1ccc(NC(=O)Cc2ccccc2Cl)cc1 [Compound 20]', '> 1000 nM');
